# TESTED_TARGET: Metabotropic glutamate receptor 2 (Homo sapiens, UniProt Q14416)
# ASSAY_NAME: Displacement of [3H]-JNJ46281222 from human metabotropic glutamate receptor 2 expressed in CHOK1 cell membranes after 60 mins by microbeta counting analysis
# Sequence (Q14416 whole entry): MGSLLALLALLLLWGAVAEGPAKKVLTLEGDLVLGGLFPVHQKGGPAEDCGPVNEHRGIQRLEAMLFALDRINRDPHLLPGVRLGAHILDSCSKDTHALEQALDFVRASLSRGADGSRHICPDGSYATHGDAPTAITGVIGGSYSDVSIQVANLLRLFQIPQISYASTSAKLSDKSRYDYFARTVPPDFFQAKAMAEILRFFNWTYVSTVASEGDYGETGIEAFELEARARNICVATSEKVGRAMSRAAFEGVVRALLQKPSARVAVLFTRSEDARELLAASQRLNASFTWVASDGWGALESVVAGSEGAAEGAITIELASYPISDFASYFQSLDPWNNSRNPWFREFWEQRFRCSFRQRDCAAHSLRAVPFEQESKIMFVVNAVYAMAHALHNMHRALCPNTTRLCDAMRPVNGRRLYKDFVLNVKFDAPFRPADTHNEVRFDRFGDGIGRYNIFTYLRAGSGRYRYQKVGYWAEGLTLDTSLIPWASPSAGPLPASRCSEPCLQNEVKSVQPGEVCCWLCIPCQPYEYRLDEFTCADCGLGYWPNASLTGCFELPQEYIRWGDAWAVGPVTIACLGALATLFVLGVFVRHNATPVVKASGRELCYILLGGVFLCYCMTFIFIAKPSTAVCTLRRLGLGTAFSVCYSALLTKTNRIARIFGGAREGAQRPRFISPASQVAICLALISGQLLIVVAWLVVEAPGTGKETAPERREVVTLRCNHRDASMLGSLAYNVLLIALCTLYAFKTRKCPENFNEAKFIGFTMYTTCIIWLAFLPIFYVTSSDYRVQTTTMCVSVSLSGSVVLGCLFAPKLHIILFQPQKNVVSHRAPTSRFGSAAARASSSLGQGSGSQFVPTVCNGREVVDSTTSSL
For each record, write down the corresponding pKi.
One number for each entry, as −log10 of the molar value.

1. Fc1cc(-c2ccn3c(CC4CC4)nnc3c2C(F)(F)F)ccc1Oc1ccnc(C2CC2)c1 : 8.44

Provide pKi for all items below, preserving their order.
1. Cc1cc(Oc2ccc(-c3ccn4c(CC5CC5)nnc4c3Cl)cc2F)ccn1
2. Cc1ccc(Oc2ccc(-c3ccn4c(CC5CC5)nnc4c3Cl)cc2F)c(C)n1

Solution:
[7.20, 8.71]

###

# TESTED_TARGET: Metabotropic glutamate receptor 2 (Homo sapiens, UniProt Q14416)
# ASSAY_NAME: Displacement of [3H]JNJ-46281222 from human metabotropic glutamate receptor 2 expressed in CHOK1 cell membranes assessed as association rate constant measured every 30 sec for 120 mins by scintillation proximity assay
# Sequence (Q14416 19-872 limits assumed): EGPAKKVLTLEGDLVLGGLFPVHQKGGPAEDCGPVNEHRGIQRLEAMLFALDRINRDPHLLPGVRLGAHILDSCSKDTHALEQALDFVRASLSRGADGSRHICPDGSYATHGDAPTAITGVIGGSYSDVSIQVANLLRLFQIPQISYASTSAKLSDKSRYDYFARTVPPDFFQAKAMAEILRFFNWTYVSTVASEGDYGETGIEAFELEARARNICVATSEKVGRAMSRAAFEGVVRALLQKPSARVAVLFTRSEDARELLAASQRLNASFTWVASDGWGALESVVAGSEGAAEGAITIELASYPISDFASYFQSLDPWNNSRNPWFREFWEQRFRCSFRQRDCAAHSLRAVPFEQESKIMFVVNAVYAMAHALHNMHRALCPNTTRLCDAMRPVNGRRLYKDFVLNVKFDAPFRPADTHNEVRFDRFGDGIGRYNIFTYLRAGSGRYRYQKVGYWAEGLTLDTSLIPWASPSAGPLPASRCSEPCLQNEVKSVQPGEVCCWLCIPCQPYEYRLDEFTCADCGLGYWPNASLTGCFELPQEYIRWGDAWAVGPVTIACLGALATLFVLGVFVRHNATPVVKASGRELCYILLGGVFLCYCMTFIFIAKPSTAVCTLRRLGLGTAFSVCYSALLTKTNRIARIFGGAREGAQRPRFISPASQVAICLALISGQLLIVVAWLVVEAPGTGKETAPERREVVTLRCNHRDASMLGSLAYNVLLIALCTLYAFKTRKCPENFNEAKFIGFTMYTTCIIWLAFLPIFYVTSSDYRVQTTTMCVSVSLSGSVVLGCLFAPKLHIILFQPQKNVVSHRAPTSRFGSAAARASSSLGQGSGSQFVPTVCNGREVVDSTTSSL
TEST_READOUT: K
Field: value (include unit after the number)

Worked set:
1. Cc1ccc(Oc2ccc(-c3ccn4c(CC5CC5)nnc4c3C)cc2F)c(C)n1 : 8.6 ×10⁶ /M/min
2. O[C@H]1CC[C@@H](Nc2ccc(-c3ccn4c(CC5CC5)nnc4c3C(F)(F)F)cc2Cl)CC1 : 5.7 ×10⁶ /M/min

Need K for each of these molecules.
1. CC(C)Nc1ccc(-c2ccn3c(CC4CC4)nnc3c2Cl)cc1F
2. Fc1cc(-c2ccn3c(CC4CC4)nnc3c2Cl)ccc1Oc1ccnc(C2CC2)c1
3. Cc1ccc(Oc2ccc(-c3ccn4c(CC5CC5)nnc4c3C)cc2Cl)c(C)n1

Solution:
1. 5 ×10⁶ /M/min
2. 1.7 ×10⁶ /M/min
3. 5.5 ×10⁶ /M/min

###

# TESTED_TARGET: Metabotropic glutamate receptor 2 (Homo sapiens, UniProt Q14416)
# ASSAY_NAME: Displacement of [3H]JNJ-46281222 from human metabotropic glutamate receptor 2 expressed in CHOK1 cell membranes assessed as dissociation rate constant measured every 30 sec for 120 mins by scintillation proximity assay
# note: boundary value 0.1 min⁻¹ maps to No; K below it maps to Yes

Some entries whose results are on file:
1) Cc1ccc(Oc2ccc(-c3ccn4c(CC(F)(F)F)nnc4c3Cl)cc2F)c(C)n1 : Yes
2) Clc1cc(-c2ccn3c(CC4CC4)nnc3c2Cl)ccc1OC1CCOCC1 : Yes
3) O[C@H]1CC[C@H](Oc2ccc(-c3ccn4c(CC(F)(F)F)nnc4c3Cl)cc2Cl)CC1 : No
4) COc1ccc(CNc2ccc(-c3ccn4c(CC5CC5)nnc4c3Cl)cc2)cn1 : Yes
5) O[C@H]1CC[C@H](Oc2ccc(-c3ccn4c(CC5CC5)nnc4c3C(F)(F)F)cc2Cl)CC1 : Yes

From here, focus on the item given below.
Exercise: # TODO verify K < 0.1 min⁻¹ strictly for this compound: `Cc1ccc(Oc2ccc(-c3ccn4c(CC5CC5)nnc4c3C)cc2Cl)c(C)n1`
Solution: Yes
